System: MS2 coat protein
Experiment: apparent KD of MS2 coat protein; designed switch direction (-1 OFF switch, 1 ON switch): 1; higher = weaker reporter binding
Details: Eterna round: R95; input ligand: FMN 200 uM
Can you tell me apparent KD of MS2 coat protein for the items I'm about to list?
Numbers only, in nM.

Use these answered entries as a reference point.
RESIDUE SEQUENCE	apparent KD of MS2 coat protein (nM)
GGAGCCGGCACCGAGGAUAUUCAUAUUAAAACAUGAGGAUCACCCAUGUACCGGAGAACCGGUUGGGAGAAGGCGGAUCGGCUCG [Xeonanis - 24] (puzzle: Same State 2)	35.4
UAGAGAGGAAGCGAGGAUAUCGUGUUAGGUACAUGAGGAUCACCCAUGUUUUAAGUAGAGAUAGGCGAGAAGGCGCAGGAGAAAA [JR_SS2_Sub088] (puzzle: Same State 2)	28.6
AACAAUCUAUCUGAGGAUAUCAUGAAAUAAACAUGAGGAUCACCCAUGUGCAGGAAAACUGCAUAUGAGAAGGCAGAUAGAUUUA [salish99_ss2_r3_057] (puzzle: Same State 2)	43.8

Briefly, apparent KD of MS2 coat protein measured for ACAAGCUUUUUAGGAAGUGAAGGGAGGGAACAUGAGGAUCACCCAUGUAAGUGGAAUGAAGAAGGAGCACGUCUUAU [JR_SHM208A_Sub097] (puzzle: Sensor for hsa-mir-208a) : 32.7
